B1: TPR t1 (parent)
chain: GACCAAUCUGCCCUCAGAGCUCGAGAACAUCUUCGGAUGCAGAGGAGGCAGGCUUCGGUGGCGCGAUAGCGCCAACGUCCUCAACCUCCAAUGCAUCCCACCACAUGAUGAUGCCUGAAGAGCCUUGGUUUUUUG

# Variants of: B1
# experiment_notes: polymerase ribozyme fitness, log enrichment relative to wild type (log ratio); higher = more active; in vitro selection for triplet polymerase activity
Categorize each record by its polymerase ribozyme fitness (log ratio) using low value: < -5; medium value: ≥ -5 and < -2; high value: ≥ -2

The examples below pair each entry with its known result.
>  <variant_designation>
C62A C94U

>  <class_label>
high value

$$$$
>  <variant_designation>
C20A G45U C53G G63C C88U A111U U125G

>  <class_label>
low value

$$$$
>  <variant_designation>
A27U C72U A83U G127A

>  <class_label>
medium value

$$$$
>  <variant_designation>
G10A C40A C56A A84C C85A C99A C115U

>  <class_label>
low value

$$$$
>  <variant_designation>
C70U C88U

>  <class_label>
high value

$$$$
>  <variant_designation>
G10C G36C G45C U59G C62U C80U

>  <class_label>
medium value

$$$$

Sort into band: A2G C123G high value

Sort into band: C4U G48C G61U C98U U112C high value

Sort into band: C8G C20U C89A A100U C102A low value

Sort into band: C53G C70G C104U C114U G120U C123G C124A low value
